target: MC4-R (Homo sapiens); construct: expressed in transfected cells; host or cells: HEK-293; assay: Competitive binding assay: inhibition of 125I-NDP-α-MSH binding to HEK-293 membranes with cloned human receptor subtype 4; conditions: Table 6; 1 μM; mean of triplicate
Sequence (P32245 whole entry): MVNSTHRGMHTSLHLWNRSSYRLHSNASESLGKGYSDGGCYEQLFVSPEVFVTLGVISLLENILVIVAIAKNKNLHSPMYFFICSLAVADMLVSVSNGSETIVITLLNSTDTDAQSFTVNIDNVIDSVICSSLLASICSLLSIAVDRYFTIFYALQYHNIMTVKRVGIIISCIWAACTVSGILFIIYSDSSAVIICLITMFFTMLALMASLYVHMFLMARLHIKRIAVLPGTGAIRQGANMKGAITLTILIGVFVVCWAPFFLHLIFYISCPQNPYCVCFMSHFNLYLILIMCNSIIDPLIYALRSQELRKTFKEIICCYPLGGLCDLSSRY
Non-standard residues stand in square brackets, D forms with d. No end group written: not given here. Tiq = 1,2,3,4-tetrahydroisoquinoline-1-carboxylic acid; 1Nal = N[C@@H](Cc1cccc2ccccc12)C(=O)O
# label = Met if % Inhibition of Binding hMC4-R >= 10% else Not met

Solved entries:
- Nal 1′-D-Phe-Arg-Trp-Cys-NH2 ([1Nal][dF]RWC-NH2; also: metal complex): Met
- D-Phe-Arg-Trp-Cys-Trp-NH2 ([dF]RWCW-NH2; also: metallopeptide): Met
- Tiq-D-Phe-Arg-Cys-Trp-NH2 (Tiq-[dF]RCW-NH2; also: metal complex): Met
- Ac-Leu-His-D-Phe-Arg-Cys-Trp-NH2 ({Ac-Leu-H2N}-[dF]RCW-NH2; not fully specified; printed as Ac-Leu-His-D-Phe-Arg-Cys-Trp-NH2): Not met
- 4′-Aminomethyl-Phenylacetyl Arg-Arg-Ala-D-Phe(4′-Cl)-Cys-Trp-NH2: Met
- Amb-D-Phe-Arg-Cys-Trp-NH2: Not met
- Pro-D-Phe-Arg-Cys-Trp-NH2 (P[dF]RCW-NH2; also: metal complex): Not met

Continue with the substance presented below.
### Prompt Could you verify whether the entry Tic-D-Phe(4′-Cl)-Arg-Trp-Cys-NH2 shows % Inhibition of Binding hMC4-R of no less than 10%?
### Response Met

###

Molecular target: MC1-R (Mus musculus)
Construct: MC1-R membranes were isolated from B16—F10 mouse melanoma cells; endogenous in cells; host or cells: B16-F10 mouse melanoma cells
Sequence (Q01727 whole entry): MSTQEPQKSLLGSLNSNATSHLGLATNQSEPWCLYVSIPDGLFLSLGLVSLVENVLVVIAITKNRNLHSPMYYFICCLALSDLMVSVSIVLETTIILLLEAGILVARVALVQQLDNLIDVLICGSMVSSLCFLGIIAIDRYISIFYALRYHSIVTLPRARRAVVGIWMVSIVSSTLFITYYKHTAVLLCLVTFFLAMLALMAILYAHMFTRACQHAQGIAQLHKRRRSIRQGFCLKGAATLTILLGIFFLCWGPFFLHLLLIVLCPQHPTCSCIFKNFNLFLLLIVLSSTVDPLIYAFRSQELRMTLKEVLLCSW
Experiment: Competitive binding assay: inhibition of 125I-NDP-α-MSH binding to membranes from B16-F10 mouse melanoma cells
Conditions: Table 6; 1 μM; mean of triplicate
Procedure: Rhenium-complexed metallopeptides of the formulas given in Table 1 were prepared, with the metallopeptides complexed with rhenium using the rhenium transfer agent ReOCl3(PPh3)2 in the presence of 1,8-Diazabicyclo[5,4,0] undec-7-ene as a base, as disclosed in International Application PCT/US00/16396, filed Jun. […] Affinities of compounds were measured using membranes from HEK-293 cells containing cloned human melanocortin receptor subtypes 3, 4 and 5. […]
Non-standard residues stand in square brackets, D forms with d. No end group written: not given here. 2Nal = N[C@@H](Cc1ccc2ccccc2c1)C(=O)O
Collected % Inhibition of Binding MC1-R values appear next to each entry.

Sample records with % Inhibition of Binding MC1-R:
• Nal 2′-D-Phe-Arg-Cys-Trp-NH2 ([2Nal][dF]RCW-NH2; also: metal complex) = 39%
• Tic-D-Phe(2′-Cl)-Arg-Trp-Cys-NH2 = 15%

### Prompt Please look at this substance and report its % Inhibition of Binding MC1-R: Pro-D-Phe-Arg-Cys-Trp-NH2 (P[dF]RCW-NH2; also: metal complex)
### Response 27%

### Prompt Entry D-Tiq-D-Phe-Arg-Trp-Cys-NH2 needs its % Inhibition of Binding MC1-R filled in; supply it.
### Response 5%

### Prompt Given the substance 3′-Br Phenyl acetyl-Arg-Arg-D-Bip-Cys-Bip-NH2 , write its reported % Inhibition of Binding MC1-R.
### Response 56%

### Prompt Complete the entry with % Inhibition of Binding MC1-R for Ac-Nle-Ala-His-D-Phe-Arg-Nal 2′-Cys-NH2
### Response 99%

### Prompt Fill in reported % Inhibition of Binding MC1-R for this entry: Hept-Ser(Bzl)-D-Phe(4′-Cl)-Arg-Trp-Cys-NH2
### Response 85%

### Prompt # return recorded % Inhibition of Binding MC1-R for input D-Nal 2′-D-Phe-Arg-Cys-Trp-NH2
### Response 50%

### Prompt Please supply the value of reported % Inhibition of Binding MC1-R for the item Tic-D-Nal-2′-Arg-Trp-Cys-NH2
### Response 10%

###

biological target: hMC5-R (Homo sapiens, UniProt P33032); construct: expressed in transfected cells; host or cells: HEK-293; assay: Competitive binding assay: inhibition of 125I-NDP-α-MSH binding to HEK-293 membranes with cloned human receptor subtype 5; conditions: Table 6; 1 μM; mean of triplicate
Sequence (P33032 whole entry): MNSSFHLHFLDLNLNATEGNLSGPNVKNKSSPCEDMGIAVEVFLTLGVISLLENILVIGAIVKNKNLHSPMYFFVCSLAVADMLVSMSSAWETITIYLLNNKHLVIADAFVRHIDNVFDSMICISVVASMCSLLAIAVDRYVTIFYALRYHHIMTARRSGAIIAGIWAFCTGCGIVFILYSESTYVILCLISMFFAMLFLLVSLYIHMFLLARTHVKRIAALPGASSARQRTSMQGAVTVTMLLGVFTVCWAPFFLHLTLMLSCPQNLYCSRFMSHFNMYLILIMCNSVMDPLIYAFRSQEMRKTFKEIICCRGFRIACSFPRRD
Non-standard residues stand in square brackets, D forms with d. No end group written: not given here. *: point of attachment. 2Nal = N[C@@H](Cc1ccc2ccccc2c1)C(=O)O; Hydrocinnamoyl = O=C(CCc1ccccc1)*; Nle = CCCC[C@H](N)C(=O)O
READOUT: % Inhibition of Binding hMC5-R

Reference set (5 entries):
* Ser(Bzl)-D-Phe-Arg-Trp-Cys-NH2 ({Ser(Bzl)}-[dF]RWC-NH2; also: metal complex) | 69%
* NH2-(CH2)6-CO-Ser(Bzl)-D-Phe(4′-Cl)-Arg-Trp-Cys-NH2 | 100%
* 3′-Phenylpropionyl-D-Phe-Arg-Cys-Trp-NH2 (Hydrocinnamoyl-[dF]RCW-NH2; not fully specified; printed as 3′-Phenylpropionyl-D-Phe-Arg-Cys-Trp-NH2) | 44%
* Ac-Nle-Ala-Ala-D-Phe-Arg-Cys-Trp-NH2 (Ac-[Nle]AA[dF]RCW-NH2; not fully specified; printed as Ac-Nle-Ala-Ala-D-Phe-Arg-Cys-Trp-NH2) | 20%
* Ac-Nle-Ala-D-Tyr-D-Phe-Arg-Cys-Trp-NH2 (Ac-[Nle]A[dY][dF]RCW-NH2; not fully specified; printed as Ac-Nle-Ala-D-Tyr-D-Phe-Arg-Cys-Trp-NH2) | 0%

// next item, % Inhibition of Binding hMC5-R requested
### Prompt Input Nal 2′-D-Phe-Arg-Trp-Cys-NH2 ([2Nal][dF]RWC-NH2; also: metal complex) , output reported % Inhibition of Binding hMC5-R.
### Response 62%

###

target: hMC5-R (Homo sapiens, UniProt P33032); construct: expressed in transfected cells; host or cells: HEK-293; assay: Competitive binding assay: inhibition of 125I-NDP-α-MSH binding to HEK-293 membranes with cloned human receptor subtype 5; conditions: Table 6; 1 μM; mean of triplicate
Non-standard residues stand in square brackets, D forms with d. No end group written: not given here. Nle = CCCC[C@H](N)C(=O)O
READOUT: % Inhibition of Binding hMC5-R
Please don't drop the unit; write it after the number.

- Amb-D-Phe-Arg-Trp-Cys-NH2: 5%
- D-Nal 2′-D-Phe-Arg-Trp-Cys-NH2: 13%
- Ac-Nle-Ala-Glu-D-Phe-Arg-Cys-Trp-NH2 (Ac-[Nle]AE[dF]RCW-NH2; not fully specified; printed as Ac-Nle-Ala-Glu-D-Phe-Arg-Cys-Trp-NH2): 0%
- Pro-D-Phe-Arg-Cys-Trp-NH2 (P[dF]RCW-NH2; also: metal complex): 33%
- D-Tiq-D-Phe-Arg-Cys-Trp-NH2: 39%

Could you now consider this next substance?
### Prompt // Input: Ac-Nle-Ala-His-D-Phe-Arg-Nal 1′-Cys-NH2 . Output its % Inhibition of Binding hMC5-R only.
### Response 82%

###

target: hMC5-R (Homo sapiens, UniProt P33032); construct: expressed in transfected cells; host or cells: HEK-293; test: Competitive binding assay: inhibition of 125I-NDP-α-MSH binding to HEK-293 membranes with cloned human receptor subtype 5; conditions: Table 6; 1 μM; mean of triplicate
Non-standard residues stand in square brackets, D forms with d. No end group written: not given here. *: point of attachment. Acetyl(2-naphthyl) = O=C(Cc1ccc2ccccc2c1)*; Desaminotyrosyl = O=C(CCc1ccc(O)cc1)*; Tic = O=C(O)[C@@H]1Cc2ccccc2CN1; 4‑Amc = not defined here; Ac5c = NC1(C(=O)O)CCCC1
Give Fulfilled when the value for % Inhibition of Binding hMC5-R is at least 50%. Give Not fulfilled when it is less.

The following substances have reported results that may help.
* Tic-D-Phe(4′-Cl)-Arg-Trp-Cys-NH2 | Fulfilled
* 3′-Br Phenyl acetyl-Arg-Arg-D-Bip-Cys-Trp-NH2 | Fulfilled
* 4-Amc-D-Phe-Arg-Trp-Cys-NH2 ({4‑Amc}-[dF]RWC-NH2; not fully specified; printed as 4-Amc-D-Phe-Arg-Trp-Cys-NH2; reading uncertain) | Not fulfilled
* D-Tiq-D-Phe-Arg-Trp-Cys-NH2 | Not fulfilled
* Tic-D-Phe-Arg-Trp-Cys-NH2 ([Tic][dF]RWC-NH2; also: metal complex) | Fulfilled
* Naphthlyl-2-acetyl-D-Phe-Arg-Cys-Trp-NH2 ({Acetyl(2-naphthyl)}-[dF]RCW-NH2; also: metal complex) | Fulfilled

### Prompt Check the entry Ac-Nle-Ala-His-D-Phe-Arg-D-Nal 1′-Cys-NH2 : does % Inhibition of Binding hMC5-R equal or exceed 50%?
### Response Not fulfilled

### Prompt Is % Inhibition of Binding hMC5-R for Ac-Ala-His-D-Phe-Arg-Cys-Trp-NH2 ({Ac-Ala-H2N}-[dF]RCW-NH2; not fully specified; printed as Ac-Ala-His-D-Phe-Arg-Cys-Trp-NH2) at or above 50%?
### Response Not fulfilled

### Prompt Please check the record D-Nal 1′-D-Phe-Arg-Trp-Cys-NH2 and state if its % Inhibition of Binding hMC5-R is at or above 50%.
### Response Not fulfilled

### Prompt Could you verify whether the entry 1-amino-1-cyclopentane carboxyl-D-Phe-Arg-Cys-Trp-NH2 ([Ac5c][dF]RCW-NH2; N-terminus assumed; SMILES N=C(N)NCCC[C@H](NC(=O)[C@@H](Cc1ccccc1)NC(=O)C1(N)CCCC1)C(=O)N[C@@H](CS)C(=O)N[C@@H](Cc1c[nH]c2ccccc12)C(N)=O) shows % Inhibition of Binding hMC5-R of no less than 50%?
### Response Fulfilled

### Prompt Reported % Inhibition of Binding hMC5-R at or above 50%? Tic-D-Nal-2′-Arg-Trp-Cys-NH2
### Response Fulfilled

### Prompt Is reported % Inhibition of Binding hMC5-R greater than or equal to 50% here: 3′-(4′-Hydroxyphenyl)propionyl-D-Phe-Arg-Cys-Trp-NH2 (Desaminotyrosyl-[dF]RCW-NH2; not fully specified; printed as 3′-(4′-Hydroxyphenyl)propionyl-D-Phe-Arg-Cys-Trp-NH2)
### Response Not fulfilled
